Origin of measurements: patent US6566344B1

Target: woodchuck hepatitis virus (WHV) DNA polymerase (Woodchuck hepatitis B virus, UniProt P03160)
Sequence (P03160 whole entry): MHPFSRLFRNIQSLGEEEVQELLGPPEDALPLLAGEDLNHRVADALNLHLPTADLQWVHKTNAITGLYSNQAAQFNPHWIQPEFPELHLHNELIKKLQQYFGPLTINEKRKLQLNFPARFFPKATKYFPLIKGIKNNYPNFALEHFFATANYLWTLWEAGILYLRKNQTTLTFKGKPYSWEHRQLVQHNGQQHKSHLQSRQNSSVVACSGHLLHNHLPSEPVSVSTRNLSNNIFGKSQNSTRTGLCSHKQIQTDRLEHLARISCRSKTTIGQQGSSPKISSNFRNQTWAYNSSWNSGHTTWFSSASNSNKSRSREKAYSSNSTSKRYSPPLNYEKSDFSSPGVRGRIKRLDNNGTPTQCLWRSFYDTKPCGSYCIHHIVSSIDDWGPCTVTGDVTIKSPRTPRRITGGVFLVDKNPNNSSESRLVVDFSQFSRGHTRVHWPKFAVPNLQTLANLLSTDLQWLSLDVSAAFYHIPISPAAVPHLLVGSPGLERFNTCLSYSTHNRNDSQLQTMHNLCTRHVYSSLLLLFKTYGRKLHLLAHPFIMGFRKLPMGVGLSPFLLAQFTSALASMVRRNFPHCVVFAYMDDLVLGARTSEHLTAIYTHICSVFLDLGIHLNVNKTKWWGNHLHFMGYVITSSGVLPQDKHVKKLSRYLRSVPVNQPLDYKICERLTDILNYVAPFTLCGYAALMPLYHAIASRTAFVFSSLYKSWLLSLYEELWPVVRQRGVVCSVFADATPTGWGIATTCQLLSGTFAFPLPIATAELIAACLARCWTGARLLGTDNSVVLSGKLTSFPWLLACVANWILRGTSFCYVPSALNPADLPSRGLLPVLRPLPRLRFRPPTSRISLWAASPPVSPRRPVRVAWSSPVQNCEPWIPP
measuredEndpoint: pIC50
Interpret pIC50 as the negative base-10 log of the concentration measured in mol/L.

// known answers, use as guide
Nc1ccn([C@@H]2C[C@@H](O)[C@H](COP(=O)(O)OP(=O)(O)OP(=O)(O)O)O2)c(=O)n1 :: 5.70
Nc1ncnc2c1ncn2[C@@H]1C[C@@H](O)[C@H](COP(=O)(O)OP(=O)(O)OP(=O)(O)O)O1 :: 5.64
Cc1cn([C@@H]2C[C@@H](O)[C@H](COP(=O)(O)OP(=O)(O)OP(=O)(O)O)O2)c(=O)[nH]c1=O :: 6.47

Value of pIC50 reported for the compound O=c1ccn([C@@H]2C[C@@H](O)[C@H](COP(=O)(O)OP(=O)(O)OP(=O)(O)O)O2)c(=O)[nH]1 is 5.10
